system: A-704; test: apilimod 5 day assay in clear cell RCC line A-704; format: cell-based; settings: Homo sapiens, A704, 120 h, A-704 clear cell RCC line, VHL mutant, read-out: EC50 (nM) (avg, n = 2)

# COMPOUND, EC50
data = [
    ("Cc1cccc(/C=N/Nc2cc(N3CCOCC3)nc(OCCc3ccccn3)n2)c1 [apilimod]", "11 nM"),
]

---

system: RCC-MF; test: apilimod 5 day assay in clear cell RCC line RCC-MF; format: cell-based; settings: 120 h, read-out: EC50 (nM) (avg, n = 2)
ASSAY READOUT: EC50 (nM)

# COMPOUND, ASSAY READOUT, UNITS TEXT, DATA VALUE
data = [
    ("Cc1cccc(/C=N/Nc2cc(N3CCOCC3)nc(OCCc3ccccn3)n2)c1 [apilimod]", "EC50", "nM", 8),
]

All values here come from patent US20190015421A1.
